Target: human 5-HT2C receptor (Homo sapiens, UniProt P28335)
Sequence (P28335 33-458): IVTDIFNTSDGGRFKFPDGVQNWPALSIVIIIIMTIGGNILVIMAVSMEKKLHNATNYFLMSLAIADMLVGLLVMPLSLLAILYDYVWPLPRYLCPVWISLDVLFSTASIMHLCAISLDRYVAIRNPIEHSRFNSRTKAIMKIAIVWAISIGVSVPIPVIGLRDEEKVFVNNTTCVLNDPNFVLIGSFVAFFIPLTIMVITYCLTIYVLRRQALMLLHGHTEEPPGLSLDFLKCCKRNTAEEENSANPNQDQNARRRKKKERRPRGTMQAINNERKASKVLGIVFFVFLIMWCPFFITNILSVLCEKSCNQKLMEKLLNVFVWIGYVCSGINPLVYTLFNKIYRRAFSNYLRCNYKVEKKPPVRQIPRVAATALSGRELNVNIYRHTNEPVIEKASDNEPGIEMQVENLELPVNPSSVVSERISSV
Assay: 5-HT2C receptor-stimulated calcium mobilization (FLIPR) in CHO cells;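 note: Fluo-3-AM fluorescence read on FLIPR every 1 s, agonist added after 10 baseline reads, response taken as peak minus lowest raw fluorescence count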
Format: cell-based
Settings: CHO, percentage of the response observed with a maximally effective concentration of 5-HT; read-out: 5-HT2C Function Emax (%)
Observable: Emax (%)
# number only, unit % dropped from output

The examples below pair each entry with its known result.
1) Cc1ccc(-c2cccc3c2OC(CN)C3)cc1 (racemic) [Example 70]	100
2) NC[C@H]1Cc2cc(F)cc(-c3c(Cl)cccc3Cl)c2O1 [Example 550]	100
3) CC(C)(C)c1cccc2c1OC(CN)C2 (single isomer, unassigned; (-)) [Example 25]	90
4) Cc1cc2c(c(-c3ccccc3F)c1)OC(CN)C2 (racemic) [Example 283]	100
5) NCC1Cc2c(cccc2-c2ccccc2C(F)(F)F)O1 (racemic) [Example 122]	70
6) NCC1Cc2cccc(-c3cccnc3)c2O1 (racemic) [Example 170]	90
7) CNCC1Cc2cccc(-c3ccc(C)cc3)c2O1 (racemic) [Example 418]	80
8) CNCC1Cc2cc(C)cc(-c3cc(Cl)ccc3Cl)c2O1 (single isomer, unassigned; (+)) [Example 487]	100
9) CNCC1Cc2cc(Cl)cc(-c3cccc(C)c3C)c2O1 (racemic) [Example 465]	60
10) CNCC1Cc2cccc(-c3cc(Cl)ccc3OC)c2O1 (racemic) [Example 430]	80

Emax recorded for this compound, COc1ccccc1-c1cc(F)cc2c1OC(CN)C2 (racemic) [Example 195] , is 80

Emax recorded for this compound, Cc1cccc(C)c1-c1cc(Cl)cc2c1OC(CN)C2 (single isomer, unassigned; (-)) [Example 261] , is 90

Emax recorded for this compound, Cc1cccc(C)c1-c1cc(C(F)(F)F)cc2c1OC(CN)C2 (racemic) [Example 338] , is 90

Emax recorded for this compound, CNCC1Cc2cc(OC)cc(-c3ccccc3F)c2O1 (racemic) [Example 491] , is 80

Emax recorded for this compound, NCC1Cc2cc(Cl)cc(-c3ccc(F)c(F)c3)c2O1 (racemic) [Example 258] , is 80

Emax recorded for this compound, NCC1Cc2cccc(-c3ccc(F)cc3F)c2O1 (racemic) [Example 146] , is 90

Emax recorded for this compound, NCC1Cc2cc(C(F)(F)F)cc(-c3ccccc3F)c2O1 (racemic) [Example 313] , is 90

Emax recorded for this compound, COc1cccc(-c2cccc3c2OC(CN)C3)c1OC (single isomer, unassigned; (-)) [Example 156] , is 90

Emax recorded for this compound, NCC1Cc2c(cccc2-c2ccccc2)O1 (single isomer, unassigned; (+)) [Example 2] , is 90

Emax recorded for this compound, Cc1cccc(C)c1-c1cccc2c1OC(CN)C2 (single isomer, unassigned; (-)) [Example 57] , is 80

Emax recorded for this compound, Cc1ccc(-c2cccc3c2OC(CN)C3)cc1 (single isomer, unassigned; (+)) [Example 71] , is 100

Emax recorded for this compound, CNCC1Cc2cccc(-c3cccnc3)c2O1 (racemic) [Example 436] , is 90

Emax recorded for this compound, COc1ccc(C)cc1-c1cc(F)cc2c1OC(CN)C2 (racemic) [Example 225] , is 90

Emax recorded for this compound, NCC1Cc2cc(F)cc(-c3cccnc3)c2O1 (racemic) [Example 206] , is 90

Emax recorded for this compound, Cc1cc2c(c(-c3c(C)cccc3C)c1)OC(CN)C2 (racemic) [Example 301] , is 90

Emax recorded for this compound, CNCC1Cc2cc(C)cc(-c3cccc(Cl)c3)c2O1 (racemic) [Example 479] , is 80

Emax recorded for this compound, CNCC1Cc2cccc(-c3cc(F)ccc3F)c2O1 (racemic) [Example 428] , is 80

Emax recorded for this compound, CNCC1Cc2cc(Cl)cc(-c3ccccc3F)c2O1 (racemic) [Example 462] , is 80

Emax recorded for this compound, NCC1Cc2cc(-c3ccccc3)cc(-c3ccccc3)c2O1 (racemic) [Example 344] , is 60
